Tested on: RARa homodimer (NR concentration 270 nM)
experimental_details: PBM binding z-score (relative to random genomic background probes); higher = stronger binding; sequences stand for … in GC…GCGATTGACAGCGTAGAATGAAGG
recorded_metric: PBM binding z-score

# biopolymer_sequence, meas_value
measured = [
    ("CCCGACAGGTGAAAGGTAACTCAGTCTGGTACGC", 0.375),
    ("AAATGTAGGTTACATCCGGGTCATTCAGGCTATG", 1.1),
    ("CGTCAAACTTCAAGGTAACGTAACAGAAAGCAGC", -0.134),
    ("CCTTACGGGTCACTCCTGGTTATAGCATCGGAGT", 0.288),
    ("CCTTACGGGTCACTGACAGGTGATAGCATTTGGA", 0.945),
    ("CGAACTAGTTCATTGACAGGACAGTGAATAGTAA", 0.437),
    ("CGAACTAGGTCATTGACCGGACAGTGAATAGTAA", 0.169),
    ("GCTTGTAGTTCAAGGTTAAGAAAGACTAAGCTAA", 0.195),
    ("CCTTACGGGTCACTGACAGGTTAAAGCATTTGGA", 0.619),
    ("GCTTGTAGATCAAGGTAAAGAAAGACTAAGCTAA", -0.716),
    ("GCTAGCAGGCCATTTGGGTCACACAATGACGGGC", -0.205),
    ("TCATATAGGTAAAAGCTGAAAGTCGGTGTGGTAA", 0.519),
    ("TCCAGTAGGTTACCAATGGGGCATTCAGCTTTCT", -0.883),
    ("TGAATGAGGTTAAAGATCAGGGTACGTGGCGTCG", -0.532),
    ("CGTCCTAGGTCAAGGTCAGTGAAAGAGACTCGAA", 1.1),
    ("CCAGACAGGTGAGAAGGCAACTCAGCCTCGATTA", 0.0696),
    ("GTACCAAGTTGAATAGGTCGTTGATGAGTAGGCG", 0.578),
    ("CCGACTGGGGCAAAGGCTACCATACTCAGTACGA", -0.204),
    ("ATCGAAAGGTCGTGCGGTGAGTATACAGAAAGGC", 0.484),
    ("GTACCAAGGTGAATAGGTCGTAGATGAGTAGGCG", 0.467),
    ("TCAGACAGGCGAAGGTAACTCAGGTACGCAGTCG", -0.553),
    ("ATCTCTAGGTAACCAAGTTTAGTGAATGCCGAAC", 1.08),
    ("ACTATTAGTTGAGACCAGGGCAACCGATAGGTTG", 0.419),
    ("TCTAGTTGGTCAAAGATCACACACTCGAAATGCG", 0.928),
    ("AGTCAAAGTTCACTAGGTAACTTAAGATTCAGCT", 1.01),
    ("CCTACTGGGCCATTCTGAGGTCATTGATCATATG", -0.372),
    ("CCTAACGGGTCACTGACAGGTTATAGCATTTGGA", 1.31),
    ("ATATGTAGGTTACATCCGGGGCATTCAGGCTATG", 0.476),
    ("TCTTGTAGATCAACCAGGTTAAGAAAGCCTGAGT", 0.037),
    ("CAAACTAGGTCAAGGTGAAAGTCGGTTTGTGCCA", 0.4),
    ("AGAATGAGGTTAAGGTCAGGGAAACAGAATACAT", 2.44),
    ("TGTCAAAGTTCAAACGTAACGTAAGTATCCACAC", 1.09),
    ("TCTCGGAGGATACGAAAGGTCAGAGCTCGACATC", 0.99),
    ("CCTATTAGTTGACCATGAGGGCAACCGAAGCTCG", 1.39),
    ("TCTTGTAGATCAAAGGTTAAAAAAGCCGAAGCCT", 0.327),
    ("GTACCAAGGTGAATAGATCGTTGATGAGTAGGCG", 0.712),
    ("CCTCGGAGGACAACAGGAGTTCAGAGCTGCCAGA", 0.371),
    ("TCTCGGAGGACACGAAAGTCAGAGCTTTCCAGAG", -0.903),
    ("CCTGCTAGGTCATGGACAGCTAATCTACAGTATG", 0.184),
    ("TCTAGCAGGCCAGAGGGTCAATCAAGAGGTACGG", -0.831),
    ("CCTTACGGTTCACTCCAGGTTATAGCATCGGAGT", 1.57),
    ("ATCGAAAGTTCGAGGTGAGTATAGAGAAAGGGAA", -0.05),
    ("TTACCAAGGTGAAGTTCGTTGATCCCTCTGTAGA", -0.298),
    ("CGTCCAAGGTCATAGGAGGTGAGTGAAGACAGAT", 0.644),
    ("GCTTACGGGTCAAAGGTTCTAGCATGAATAGAAT", 0.382),
    ("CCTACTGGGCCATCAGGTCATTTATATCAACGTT", 0.492),
    ("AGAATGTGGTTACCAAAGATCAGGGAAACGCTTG", -0.0425),
    ("ATCTCTAGGTAGCCAAGTTCAGTGAATGCCGAAC", 0.228),
    ("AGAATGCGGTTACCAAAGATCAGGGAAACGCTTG", -0.366),
    ("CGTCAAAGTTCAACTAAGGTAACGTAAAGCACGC", 2.05),
    ("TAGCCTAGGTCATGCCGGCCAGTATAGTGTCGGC", -0.917),
]

Data provenance: the supplement of paper PMC6555819
